# Tested on: ACHN renal
# assay_explanation: NCI-60 one-dose screen, 48 h (100 = growth as untreated, 0 = no growth, -100 = all killed)
# measurement_parameters: 10 µM
About 83,000 compounds went through this panel and 20% of them were active in at least one assay; those are over-represented in the sample as a whole.
observable: growth (%)

[[record]]
molecule = "C[C@]12CC[C@@H]3c4ccc(OCC(=O)O)cc4CC[C@H]3[C@@H]1CCC2=O"
assay_target = "ACHN renal"
value_observed = 96.9

[[record]]
molecule = "CCOC(=O)C(C#N)Cc1ccccc1 (stereo not drawn)"
assay_target = "ACHN renal"
value_observed = 110

[[record]]
molecule = "Cc1cc(C)cc(NCCC#N)c1"
assay_target = "ACHN renal"
value_observed = 107

[[record]]
molecule = "CCC(=O)Oc1ccc(OC)cc1"
assay_target = "ACHN renal"
value_observed = 101

[[record]]
molecule = "O=c1[nH]c(O)c(/C=C2/C=Nc3ccccc32)[nH]1"
assay_target = "ACHN renal"
value_observed = 87

[[record]]
molecule = "CC(=O)c1ccc(N=C(C#N)C2=C(O)c3ccccc3C2=O)cc1"
assay_target = "ACHN renal"
value_observed = 106

[[record]]
molecule = "CCCCCCCCCCCCCCCCC1CC(=O)OC1=O (stereo not drawn)"
assay_target = "ACHN renal"
value_observed = 110

[[record]]
molecule = "O=C1NC(=O)C2C(=O)NC(=O)C1C21CCc2ccccc21 (stereo not drawn)"
assay_target = "ACHN renal"
value_observed = 95.6

[[record]]
molecule = "O=C(NCO)c1ccccc1"
assay_target = "ACHN renal"
value_observed = 97.4

[[record]]
molecule = "CCC(C)(C)C1CCC(O)CC1 (stereo not drawn)"
assay_target = "ACHN renal"
value_observed = 97.7

[[record]]
molecule = "O=C(Nc1cc(-c2ccccc2)[nH]n1)c1ccc(Cl)cc1"
assay_target = "ACHN renal"
value_observed = 60.8

[[record]]
molecule = "CN(C)c1ccc(S(=O)(=O)O)cc1"
assay_target = "ACHN renal"
value_observed = 93.9

[[record]]
molecule = "CN1C(=O)CN2CCc3ccccc3C2c2cc(Cl)ccc21 (stereo not drawn)"
assay_target = "ACHN renal"
value_observed = 93.6

